system: TK-10 renal; assay: NCI-60 one-dose screen, 48 h; details: 10 µM
This is part of a sample that, as a whole, favours compounds with a hit. Of some 83,000 tested, about 20% had one in any assay. Activity calls are given as the source filed them. Rule for the calls: active = growth percent below 10; inactive = the rest.
Possible outcomes: active, inactive

1. Nc1n[nH]c2cccc(C#Cc3cccc(NC(=O)Nc4cc(C(F)(F)F)cc(C(F)(F)F)c4)c3)c12 :: active
2. COc1ccc(-c2cc(-c3cc(C(=O)c4ccccc4)n4ccc(C)cc34)nc(N)c2C#N)cc1 :: inactive
3. CN1CCN(c2ccc(C(=O)/C=C/c3ccc(OC(F)F)cc3)cc2)CC1 :: inactive
4. O=C(Cn1nc(-c2ccccc2)ccc1=O)NNC(=S)NC1CCCCC1 :: inactive
5. O=c1c2ccccc2nc(COc2ccccc2)n1/N=C/c1ccc(F)cc1 :: inactive
6. COc1ccc(C2NC(=S)NC(C)=C2C(=O)OC(C)C)cc1OC (centres undefined) :: inactive
7. COc1cc2c3c(n(CCCn4ccnc4)c(=O)c2cc1OC)-c1nc2c(cc1C3=O)OCO2 :: inactive
8. COc1cc(/C=C/C(=O)c2ccc(S(=O)(=O)NCCNc3nc(Nc4ccc(F)cc4)nc(N(C)C)n3)cc2)cc(OC)c1OC :: inactive
9. COc1ccc2c(c1)N=C(C(=O)O)/C2=C/c1sc(Nc2ccc(O)cc2)nc1O :: inactive
